test system: Leukotriene A-4 hydrolase (Sus scrofa); assay: Inhibitory activity against Leukotriene A4 hydrolase at 100 mg/kg (po) in rat plasma extracts
Label scheme for inhibition: lower than 20% is False, 20% and above is True.

>  <Smiles entry>
Nc1ccc(Cc2ccc(CCCCCCC(=O)O)cc2)cc1

>  <Tgt>
Leukotriene A-4 hydrolase (Sus scrofa)

>  <Class assignment>
True

$$$$
>  <Smiles entry>
O=C(O)CCCCCCc1ccc(Cc2ccc(Cl)cc2)cc1

>  <Tgt>
Leukotriene A-4 hydrolase (Sus scrofa)

>  <Class assignment>
False

$$$$
>  <Smiles entry>
O=C(O)CCCCCSc1ccc(CCCc2ccccc2)cc1

>  <Tgt>
Leukotriene A-4 hydrolase (Sus scrofa)

>  <Class assignment>
False

$$$$
>  <Smiles entry>
O=C(O)COCCCCc1ccc(CCCc2ccccc2)s1

>  <Tgt>
Leukotriene A-4 hydrolase (Sus scrofa)

>  <Class assignment>
True

$$$$
>  <Smiles entry>
O=C(O)CCCCCCc1ccc(Cc2cnc3ccccc3c2)cc1

>  <Tgt>
Leukotriene A-4 hydrolase (Sus scrofa)

>  <Class assignment>
True

$$$$
>  <Smiles entry>
O=C(O)CCCCCSc1ccc(CCCc2ccccc2)s1

>  <Tgt>
Leukotriene A-4 hydrolase (Sus scrofa)

>  <Class assignment>
False

$$$$

----------
Quick reference: inhibition of the listed items.
system: Leukotriene A-4 hydrolase (Sus scrofa); assay: Inhibitory activity against Leukotriene A4 hydrolase at 5 mg/kg (po) in rat plasma extracts

>  <Smiles entry>
O=C(O)CCCCCSc1ccc(CCCc2ccccc2)s1

>  <Unit string>
%

>  <inhibition>
4

$$$$
>  <Smiles entry>
Nc1ccc(Cc2ccc(CCCCCCC(=O)O)cc2)cc1

>  <Unit string>
%

>  <inhibition>
29

$$$$
>  <Smiles entry>
O=C(O)CCCCCCc1ccc(Cc2ccc(Cl)cc2)cc1

>  <Unit string>
%

>  <inhibition>
22

$$$$
>  <Smiles entry>
O=C(O)CCCCCCc1ccc(Cc2cnc3ccccc3c2)cc1

>  <Unit string>
%

>  <inhibition>
27

$$$$
>  <Smiles entry>
O=C(O)CCCCCCc1ccc(CCCc2ccccc2)s1

>  <Unit string>
%

>  <inhibition>
0

$$$$

----------
tested on: Leukotriene A-4 hydrolase (Sus scrofa); experiment: Inhibition of LTA4 hydrolase mediated LTB4 biosynthesis by porcine leukocytes at 2*10e-5M
Label scheme for inhibition: lower than 80% is criterion not met, 80% and above is criterion met.

>  <Molecule>
O=C(O)CCCCCCc1ccc(CCc2ccccc2)cc1

>  <Class assignment>
criterion not met

$$$$
>  <Molecule>
NC(=O)Nc1ccc(Cc2ccc(CCCCCCC(=O)O)cc2)cc1

>  <Class assignment>
criterion met

$$$$
>  <Molecule>
O=C(O)CCCCCCc1ccc(Cc2ccccn2)cc1

>  <Class assignment>
criterion not met

$$$$
>  <Molecule>
O=C(O)CCCCCCc1ccc(Cc2cnc3ccccc3c2)cc1

>  <Class assignment>
criterion met

$$$$
>  <Molecule>
O=C(O)COCCCCc1ccc(CCCc2ccccc2)s1

>  <Class assignment>
criterion met

$$$$
>  <Molecule>
O=C(O)CCCC(O)CCc1ccc(CCCc2ccccc2)s1 (stereo unspecified)

>  <Class assignment>
criterion not met

$$$$
>  <Molecule>
O=C(O)CCCCCSc1ccc(CCCc2ccccc2)cc1

>  <Class assignment>
criterion not met

$$$$
>  <Molecule>
Nc1ccc(Cc2ccc(CCCCCCC(=O)O)cc2)cc1

>  <Class assignment>
criterion met

$$$$
>  <Molecule>
O=C(O)CCCCCCc1ccc(CCc2ccccc2)s1

>  <Class assignment>
criterion met

$$$$
>  <Molecule>
O=C(O)CCCCCCc1ccc(Cc2ccc(C(F)(F)F)cc2)cc1

>  <Class assignment>
criterion not met

$$$$
>  <Molecule>
O=C(O)CCCCCCc1ccc(Cc2ccc([N+](=O)[O-])cc2)cc1

>  <Class assignment>
criterion not met

$$$$
>  <Molecule>
O=C(O)CCCCCCc1ccc(Cc2ccccc2)s1

>  <Class assignment>
criterion not met

$$$$
>  <Molecule>
O=C(O)CCCCCCc1ccc(CCCc2ccccc2)cc1

>  <Class assignment>
criterion not met

$$$$
>  <Molecule>
O=C(O)CCCCCCc1ccc(Cc2ccc(Cl)cc2)cc1

>  <Class assignment>
criterion not met

$$$$
>  <Molecule>
COc1ccc(Cc2ccc(CCCCCCC(=O)O)cc2)cc1

>  <Class assignment>
criterion not met

$$$$
>  <Molecule>
Cc1ccc(Cc2ccc(CCCCCCC(=O)O)cc2)cc1

>  <Class assignment>
criterion not met

$$$$
